- Tested on: L. pneumophila serogroup 2
- testSummary: microbe, parasite or virus in culture
- Format: cell-based
- testParameters: Legionella pneumophila
So I've got a bunch of molecules here, and I need their MIC50 values.
Your answer should be a plain number; it is taken to be in ng/mL.

### Prompt Query for L. pneumophila serogroup 2: what MIC50 does the record show for CC[C@H]1OC(=O)[C@H](C)[C@@H](O[C@H]2C[C@@](C)(OC)[C@@H](O)[C@H](C)O2)[C@H](C)[C@@H](O[C@@H]2O[C@H](C)C[C@H](N(C)C)[C@H]2O)[C@](C)(O)C[C@@H](C)C(=O)[C@H](C)[C@@H](O)[C@]1(C)O ?
### Response 250

### Prompt Entry C[C@H]1COc2c(N3CCN(C)CC3)c(F)cc3c(=O)c(C(=O)O)cn1c23 , system L. pneumophila serogroup 2: what MIC50 was measured?
### Response 8

### Prompt API: value(readout= MIC50, system= L. pneumophila serogroup 2, query= Cc1c(F)c(N2CCNC(C)C2)cc2c1c(=O)c(C(=O)O)cn2C1CC1 (stereo not shown) )
### Response 8

### Prompt Give L. pneumophila serogroup 2 MIC50 for COc1c(N2C[C@@H]3CCCN[C@@H]3C2)c(F)cc2c(=O)c(C(=O)O)cn(C3CC3)c12
### Response 8

### Prompt Form entry - test system: L. pneumophila serogroup 2; read-out: MIC50; molecule: CO/N=C1\CN(c2nc3c(cc2F)c(=O)c(C(=O)O)cn3C2CC2)CC1CN (racemic)
### Response 8

### Prompt Write down the reported MIC50 of CC1COc2c(N3CCN(C)CC3)c(F)cc3c(=O)c(C(=O)O)cn1c23 (stereo not shown) , test system: L. pneumophila serogroup 2.
### Response 16

---

Please respond with reported MIC50 for every item in the list.
- Tested on: L. pneumophila serogroup 2
- testSummary: microbe, parasite or virus in culture
- Assay type: cell-based
- testParameters: Legionella pneumophila
Give your result in µg/mL as a bare value.

### Prompt Please look up its MIC50: CC[C@H]1OC(=O)[C@H](C)[C@@H](O[C@H]2C[C@@](C)(OC)[C@@H](O)[C@H](C)O2)[C@H](C)[C@@H](O[C@@H]2O[C@H](C)C[C@H](N(C)C)[C@H]2O)[C@](C)(OC)C[C@@H](C)C(=O)[C@H](C)[C@@H](O)[C@]1(C)O
### Response 0.03

### Prompt Field request: MIC50 | item: CC[C@H]1OC(=O)[C@H](C)[C@@H](O[C@H]2C[C@@](C)(OC)[C@@H](O)[C@H](C)O2)[C@H](C)[C@@H](O[C@@H]2O[C@H](C)C[C@H](N(C)C)[C@H]2O)[C@](C)(O)C[C@@H](C)CN(C)[C@H](C)[C@@H](O)[C@]1(C)O
### Response 0.06

---

- Test system: L. pneumophila serogroup 7
- testSummary: microbe, parasite or virus in culture
- Type: cell-based
- testParameters: Legionella pneumophila
So I've got a bunch of compounds here, and I need their MIC90 values.

### Prompt Give MIC90 (L. pneumophila serogroup 7) of the following compound: COc1c(N2C[C@@H]3CCCN[C@@H]3C2)c(F)cc2c(=O)c(C(=O)O)cn(C3CC3)c12 [Moxifloxacin]
### Response 0.016 µg/mL

### Prompt Tell me reported MIC90 for CC[C@H]1OC(=O)[C@H](C)[C@@H](O[C@H]2C[C@@](C)(OC)[C@@H](O)[C@H](C)O2)[C@H](C)[C@@H](O[C@@H]2O[C@H](C)C[C@H](N(C)C)[C@H]2O)[C@](C)(OC)C[C@@H](C)C(=O)[C@H](C)[C@@H](O)[C@]1(C)O [Clarithromycin] , tested with L. pneumophila serogroup 7.
### Response 0.06 µg/mL

### Prompt Query for L. pneumophila serogroup 7: what MIC90 does the record show for CC[C@H]1OC(=O)[C@H](C)[C@@H](O[C@H]2C[C@@](C)(OC)[C@@H](O)[C@H](C)O2)[C@H](C)[C@@H](O[C@@H]2O[C@H](C)C[C@H](N(C)C)[C@H]2O)[C@](C)(O)C[C@@H](C)C(=O)[C@H](C)[C@@H](O)[C@]1(C)O [Erythromycin] ?
### Response 0.5 µg/mL
